tested on: A549 NSCLC; assay: NCI tumour cell line growth inhibition, 48 h
value kind: TGI (µM)
Express your answer in µM, writing the number without its unit.

In: Consider the compound shown here: O=C1C[C@H](Sc2ccccc2)C2(OCCO2)[C@@H](Sc2ccccc2)C1 What is its recorded TGI?
Out: 28

In: Consider the compound shown here: OB1OCc2cc(/C=C/c3cccc(C(F)(F)F)c3)ccc21 What is its recorded TGI?
Out: 19.6

In: Consider the compound shown here: CCCNC(=O)CCC(C)[C@H]1CCC2C3C(C[C@H](OC(C)=O)[C@@]21C)[C@@]1(C)CCC2(C[C@H]1C[C@H]3OC(C)=O)OOC1(CCC(C)CC1)OO2 (some centres undefined) What is its recorded TGI?
Out: 5.26

In: Consider the compound shown here: CNC(=O)c1cc2c(Oc3ccc(NC(=O)C4(C(=O)Nc5ccc(F)cc5)CC4)cc3)ccnc2cc1OC What is its recorded TGI?
Out: 16.9

###

test system: HT29 colon; assay: NCI tumour cell line growth inhibition, 48 h; in the data active = GI50 below about 0.43 µM; inactive = the rest
Outcomes you can answer with include only these: t (active), f (inactive)

In: Entry Cc1cc(Nc2nc(SCc3ccc(C(=O)Nc4ccc(F)cc4N)cc3)nn3cccc23)n[nH]1 : call = ?
Out: t

In: Entry c1ccc2nc3c(cc4ccccn43)nc2c1 : call = ?
Out: f

In: Entry COc1ccc(-c2nnc(N3CCN(C(=O)CN4CCN(c5ccc(OC)cc5)CC4)CC3)nc2-c2ccc(OC)cc2)cc1 : call = ?
Out: f

In: Entry COc1ccc(/C=C2/CCc3cc4ccc(OC)cc4[o+]c32)c(O)c1 : call = ?
Out: f

In: Entry OC(CN1CC1)C(O)CN1CC1 (stereo not given) : call = ?
Out: f

In: Entry Cn1c([N+](=O)[O-])cnc1/C=C1\Oc2cc(Cl)ccc2C1=O : call = ?
Out: t

In: Entry O=S1(=O)NCCCN1CCNc1nccc(-c2c(-c3cccc(O)c3)nc3sccn23)n1 : call = ?
Out: f

In: Entry CCCCCCCCCCCCCCCCCCNC(=O)[C@H]1CSC(c2cccs2)N1 (stereo not given in full) : call = ?
Out: f

In: Entry CCOC1Oc2ccccc2-c2oc(=O)c(Sc3ccc(C)cc3)cc21 (stereo not given) : call = ?
Out: f

In: Entry O=C(O)CCC(NC(=S)S)C(=O)O.[Na+].[Zn+2] (stereo not given) : call = ?
Out: f

###

test system: SK-MEL-5 melanoma; assay: NCI tumour cell line growth inhibition, 48 h
value kind: TGI (µM)
Express your answer in µM, writing the number without its unit.

In: Consider the molecule shown here: Brc1cccc(Nc2nc(-c3cccs3)nc3ccc(Br)cc23)c1 What is its recorded TGI?
Out: 30.9

In: Consider the molecule shown here: C(=N\NC1=NCCCN1)/c1ccc2ccccc2c1 What is its recorded TGI?
Out: 10.3

In: Consider the molecule shown here: CNC(=O)c1cc2c(Oc3ccc(NC(=O)C4(C(=O)Nc5ccc(F)cc5)CC4)cc3)ccnc2cc1OC What is its recorded TGI?
Out: 6.51

In: Consider the molecule shown here: CCCCCCCCCCCC[n+]1ccccc1 (tested in a mixture with another compound) What is its recorded TGI?
Out: 1.36

In: Consider the molecule shown here: C=C1CC2(OC1=O)C(=O)N(CCCN1C(=O)C3(CC(=C)C(=O)O3)c3ccccc31)c1ccccc12 (stereo not given) What is its recorded TGI?
Out: 16.7
